B1: Segment polarity protein dishevelled homolog DVL-3, residues 2 to 81; numbered along this chain, Q92997 (parent)
chain: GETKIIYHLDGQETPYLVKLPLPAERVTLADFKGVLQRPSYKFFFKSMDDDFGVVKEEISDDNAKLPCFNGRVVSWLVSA

Variants of: B1
Test: abundance fitness (aPCA) (normalised: wild type 0, dead -1); higher = more abundant; growth selection in yeast, the domain comes from the species named
Details: Homo sapiens
Assign 1 whenever abundance fitness does not fall below -0.6; assign 0 whenever it does.

- MUTANT LABEL: "S60G"
  CLASS NAME: 1
- MUTANT LABEL: "V74E"
  CLASS NAME: 1
- MUTANT LABEL: "E25T"
  CLASS NAME: 1
- MUTANT LABEL: "D62A"
  CLASS NAME: 0
- MUTANT LABEL: "E57G"
  CLASS NAME: 0
- MUTANT LABEL: "R26S"
  CLASS NAME: 1
- MUTANT LABEL: "F69Q"
  CLASS NAME: 1
- MUTANT LABEL: "K56W"
  CLASS NAME: 1
- MUTANT LABEL: "V27Q"
  CLASS NAME: 0
- MUTANT LABEL: "A24R"
  CLASS NAME: 1
- MUTANT LABEL: "S79F"
  CLASS NAME: 1
- MUTANT LABEL: "A24W"
  CLASS NAME: 1
- MUTANT LABEL: "D51P"
  CLASS NAME: 1
- MUTANT LABEL: "E58L"
  CLASS NAME: 1

Values from the Human Domainome abundance scans (Beltran et al. 2025)
